B1: IRX6 (parent)
chain: YPCLEKPRIWSLAHTATASAVEGA

- Variants of: B1
- procedure.summary: protein stability index of a GFP-peptide fusion (GPS, HEK-293T) (PSI 1-6); higher = more stable;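 further: lentivirally expressed fusions sorted by FACS into six bins by GFP to DsRed ratio, PSI derived from sequencing read proportions per bin multiplied by bin number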
- protocol.conditions: c terminus: a fixed tail appended
Binary call on protein stability index: Fulfilled from 2 upward, Not fulfilled beneath that.

variant.spec	category
L12P	Fulfilled
R8Y	Fulfilled
P2L	Not fulfilled
C3D	Not fulfilled
P2V	Fulfilled
V21T	Fulfilled
T17P	Fulfilled
P7T	Fulfilled
V21P	Fulfilled
E22T	Fulfilled
P2Y	Fulfilled
A13I	Fulfilled
R8L	Fulfilled
L12E	Not fulfilled
W10Q	Fulfilled
V21M	Not fulfilled
L12D	Fulfilled
Y1G	Fulfilled
R8E	Fulfilled
Y1E	Fulfilled
E22R	Fulfilled
G23T	Fulfilled
E22S	Not fulfilled
T17A	Not fulfilled
V21W	Fulfilled
S19N	Fulfilled
A20E	Not fulfilled
A18Y	Fulfilled
V21C	Not fulfilled
C3P	Fulfilled
R8I	Fulfilled
C3F	Fulfilled
A16Y	Fulfilled
P2K	Fulfilled
S11K	Fulfilled
A13H	Fulfilled
Y1T	Fulfilled
G23N	Fulfilled
T15D	Fulfilled
W10E	Fulfilled
S11M	Not fulfilled
T17E	Fulfilled
A13G	Fulfilled
A16C	Fulfilled
K6G	Fulfilled
V21S	Not fulfilled
E5T	Fulfilled
L4F	Fulfilled
E5P	Fulfilled
R8M	Fulfilled
A18I	Fulfilled
Y1R	Fulfilled
G23S	Fulfilled
E22N	Fulfilled
T17L	Not fulfilled
I9N	Fulfilled
S11F	Not fulfilled
I9H	Not fulfilled
G23Q	Not fulfilled
T17N	Fulfilled
V21K	Not fulfilled
T17Y	Fulfilled
K6N	Not fulfilled
A20H	Fulfilled
T15R	Fulfilled
G23C	Not fulfilled
W10C	Fulfilled
S19F	Fulfilled
I9M	Fulfilled
I9P	Fulfilled
A16K	Fulfilled
K6W	Fulfilled
S19K	Not fulfilled
P7A	Fulfilled
A24H	Fulfilled
E22W	Not fulfilled
A16I	Not fulfilled
K6R	Not fulfilled
P2N	Fulfilled
V21F	Fulfilled
H14S	Fulfilled
V21R	Fulfilled
A24K	Fulfilled
A18V	Fulfilled
A20M	Not fulfilled
W10G	Fulfilled
P7Y	Fulfilled

The reported measurements were obtained from the supplement of paper PMC10567573.
